Test system: EPHB2 kinase domain
Experiment: pTyr-Var library bacterial peptide display kinase screen (enrichment scores);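 further: log2 fold change in enrichment of variant over reference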
Type: biochemical, human
Conditions: sheet EPHB2; effect of variant peptide relative to its reference peptide in the pTyr-Var library screen (enrichment scores)

entry.sequence: ITNVLYHVVGW [GBA_Y412_L410V]
Screen: -1.361
--
entry.sequence: VARAVYQAVLS [SMG1_Y549_H546R]
Screen: -3.744
--
entry.sequence: NDFGNYSNQSS [HNRNPA1_Y318_N319S]
Screen: 2.422
--
entry.sequence: SEPDLYFDPRG [PKP1_Y160_C161Y_YF]
Screen: 1.913
--
entry.sequence: SRDPFYEMLTA [CYTH1_Y382_A386T]
Screen: 0.7334
--
entry.sequence: VKANTYENFWP [GATM_Y100_K102N_YF]
Screen: 2.516
--
entry.sequence: KSRQIYDAFIM [GRK3_Y109_R104K_YF]
Screen: 1.299

* * *

The reader will find reported Screen values listed item by item below.
System: Fer kinase domain
Assay: pTyr-Var library bacterial peptide display kinase screen (enrichment scores);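 further: log2 fold change in enrichment of variant over reference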
Type: biochemical, mouse
Conditions: sheet "Fer"; value of the variant peptide against its reference peptide in the pTyr-Var library screen with Fer

entry.sequence: QRRNVYFFSFL [PTEN_Y176_Y174N_YF]
target.system: Fer kinase domain
Screen: -1.418
//
entry.sequence: VDEVLYEDSSA [MTHFS_Y197_T202A]
target.system: Fer kinase domain
Screen: -0.2341
//
entry.sequence: KDQGIYEDFVE [MYL6_Y86_T85I_YF]
target.system: Fer kinase domain
Screen: 1.02
//
entry.sequence: ASTHIYQIMNH [ITK_Y588_V587I]
target.system: Fer kinase domain
Screen: 2.332
//
entry.sequence: AMGPVYQAAAL [HYOU1_Y421_A419P]
target.system: Fer kinase domain
Screen: 1.97
//
entry.sequence: SRDPFYEMLTA [CYTH1_Y382_A386T]
target.system: Fer kinase domain
Screen: -0.1692
//
entry.sequence: PAIFTYDEFKK [COL8A2_Y648_T645I_YF]
target.system: Fer kinase domain
Screen: -2.501
//
entry.sequence: FSMGCYEIFLG [HMGCL_Y198_S201Y_YF]
target.system: Fer kinase domain
Screen: 1.084
//
entry.sequence: KAWGIYDCQQP [CYP3A7_Y75_V71A]
target.system: Fer kinase domain
Screen: 0.5201
//
entry.sequence: GENTVYAQVFN [LY9_Y603_M602V]
target.system: Fer kinase domain
Screen: 0.3094
//
entry.sequence: VFGVSYDEFRF [CFTR_Y512_I507V_YF]
target.system: Fer kinase domain
Screen: 0.375
//
entry.sequence: GTSLIYWILFT [G6PC3_Y214_T216I]
target.system: Fer kinase domain
Screen: -1.528
//
entry.sequence: TRDVNYGWIIH [MT-CYB_Y75_R80H]
target.system: Fer kinase domain
Screen: 3.39
//
entry.sequence: KKHIPYRQHKS [CSNK1G2_Y206_E208Q]
target.system: Fer kinase domain
Screen: 0.3167
//
entry.sequence: MFNPCYGLFEF [NEDD4L_Y680_Y679C_YF]
target.system: Fer kinase domain
Screen: -0.1579
//
entry.sequence: HNLDFYKETTN [FGFR3_Y648_K650E_YF]
target.system: Fer kinase domain
Screen: -1.533
//
entry.sequence: SEPDLYFDPRG [PKP1_Y160_C161Y_YF]
target.system: Fer kinase domain
Screen: -1.5
//
entry.sequence: VDGSVYELHPS [GCK_Y413_K414E]
target.system: Fer kinase domain
Screen: 4.734
//
entry.sequence: FSMGCYEFSLG [HMGCL_Y198_I200F_YF]
target.system: Fer kinase domain
Screen: 0.8119
//
entry.sequence: SSSAIYDNPDL [DCP1B_Y191_N195D]
target.system: Fer kinase domain
Screen: -0.4908
//
entry.sequence: ICGVSYDEFRF [CFTR_Y512_F508C_YF]
target.system: Fer kinase domain
Screen: -0.3864
//
entry.sequence: SSSNPYSTVTV [ACTN2_Y599_M604V]
target.system: Fer kinase domain
Screen: -0.1641
//
entry.sequence: IKRIDYEFVEM [ADA_Y84_A83D]
target.system: Fer kinase domain
Screen: -0.7273
//
entry.sequence: NVKGIYAVADV [GSR_Y371_G374A]
target.system: Fer kinase domain
Screen: 1.853
//
entry.sequence: TLSGTYQFIIA [FOXL2_Y81_I80T_YF]
target.system: Fer kinase domain
Screen: -3.428
//
entry.sequence: VDGSLYETHPQ [HK1_Y417_K418E]
target.system: Fer kinase domain
Screen: 4.441
//
entry.sequence: AVISVYDLVVV [PSEN1_Y256_A260V]
target.system: Fer kinase domain
Screen: 0.009469
//
entry.sequence: EFHRLYEEFTR [PIK3R1_Y467_D464H_YF]
target.system: Fer kinase domain
Screen: -0.6972
//
entry.sequence: VKANTYENFWP [GATM_Y100_K102N_YF]
target.system: Fer kinase domain
Screen: 1.784
//
entry.sequence: CSRCFYQLTKL [AR_Y858_R856C]
target.system: Fer kinase domain
Screen: 1.959
//
entry.sequence: ETEMLYGSARR [PRC1_Y464_P468R]
target.system: Fer kinase domain
Screen: -2.34
//
entry.sequence: RTVPLYESLRK [DDB1_Y718_P721L]
target.system: Fer kinase domain
Screen: -0.4469
//
entry.sequence: QMVGMYASFFM [AVPR2_Y124_S127F_YF]
target.system: Fer kinase domain
Screen: 2.583
//
entry.sequence: ITNVLYHVVGW [GBA_Y412_L410V]
target.system: Fer kinase domain
Screen: -0.5496
//
entry.sequence: FLTQHYDAIPQ [ANG_Y38_K41I]
target.system: Fer kinase domain
Screen: 3.881
//
entry.sequence: MSRFIYSTDFF [NTRK1_Y676_D674Y_YF]
target.system: Fer kinase domain
Screen: -0.8782
//
entry.sequence: KSRQIYDAFIM [GRK3_Y109_R104K_YF]
target.system: Fer kinase domain
Screen: 0.5964
//
entry.sequence: FAELVYTSFWH [ASS1_Y322_G324S]
target.system: Fer kinase domain
Screen: 0.3535
//
entry.sequence: QTEAPYRFIFM [PTPN11_Y511_Q510P_YF]
target.system: Fer kinase domain
Screen: 2.526
//
entry.sequence: MENFIYESMQF [CYP19A1_Y361_R365Q_YF]
target.system: Fer kinase domain
Screen: 0.2137
//
entry.sequence: RQQQDYWLKDV [ANPEP_Y600_I603K]
target.system: Fer kinase domain
Screen: -2.803
//
entry.sequence: NAGAFYVLSTL [FLVCR2_Y325_A326V]
target.system: Fer kinase domain
Screen: -2.63
//
entry.sequence: SKHHLYSDLQT [PTCHD1_Y84_R82H]
target.system: Fer kinase domain
Screen: 1.431

* * *

System: EPHB1 kinase domain
Experiment: pTyr-Var library bacterial peptide display kinase screen (enrichment scores);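 further: log2 fold change in enrichment of variant over reference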
Format: biochemical, human
Conditions: sheet EPHB1; effect of the variant peptide relative to its reference peptide in the pTyr-Var library screen (enrichment scores)
Binary classification by Screen, with 0.9 as an inclusive lower bound for rule met; all other cases are rule not met.

entry.sequence: QMVGMYASFFM [AVPR2_Y124_S127F_YF]
target.system: EPHB1 kinase domain
class: rule met
//
entry.sequence: VKANTYENFWP [GATM_Y100_K102N_YF]
target.system: EPHB1 kinase domain
class: rule met
//
entry.sequence: SEPDLYFDPRG [PKP1_Y160_C161Y_YF]
target.system: EPHB1 kinase domain
class: rule met
//
entry.sequence: KSRQIYDAFIM [GRK3_Y109_R104K_YF]
target.system: EPHB1 kinase domain
class: rule met
//
entry.sequence: FAELVYTSFWH [ASS1_Y322_G324S]
target.system: EPHB1 kinase domain
class: rule not met
//
entry.sequence: ASTHIYQIMNH [ITK_Y588_V587I]
target.system: EPHB1 kinase domain
class: rule met
//
entry.sequence: RTVPLYESLRK [DDB1_Y718_P721L]
target.system: EPHB1 kinase domain
class: rule not met
//
entry.sequence: LKRCQYVTKKV [ALDOA_Y204_E207K]
target.system: EPHB1 kinase domain
class: rule not met
//
entry.sequence: QRASDYFSQQM [GBP6_Y333_A331S_YF]
target.system: EPHB1 kinase domain
class: rule met
//
entry.sequence: IKRIDYEFVEM [ADA_Y84_A83D]
target.system: EPHB1 kinase domain
class: rule met
//
entry.sequence: KKHIPYRQHKS [CSNK1G2_Y206_E208Q]
target.system: EPHB1 kinase domain
class: rule not met
//
entry.sequence: KAWGIYDCQQP [CYP3A7_Y75_V71A]
target.system: EPHB1 kinase domain
class: rule not met
//
entry.sequence: TQPSPYAVFLF [RPGRIP1_Y823_R827L_YF]
target.system: EPHB1 kinase domain
class: rule not met
//
entry.sequence: EFHRLYEEFTR [PIK3R1_Y467_D464H_YF]
target.system: EPHB1 kinase domain
class: rule not met
//
entry.sequence: TLSGTYQFIIA [FOXL2_Y81_I80T_YF]
target.system: EPHB1 kinase domain
class: rule not met
//
entry.sequence: QAIDEYEKWLE [MAP9_Y603_N601D]
target.system: EPHB1 kinase domain
class: rule not met
//
entry.sequence: CTHDLYMFMRE [FGFR3_Y724_I726F]
target.system: EPHB1 kinase domain
class: rule not met
//
entry.sequence: PVGVLYEVKVF [PTS_Y128_K129E_YF]
target.system: EPHB1 kinase domain
class: rule not met
//
entry.sequence: SSSAIYDNPDL [DCP1B_Y191_N195D]
target.system: EPHB1 kinase domain
class: rule not met
//
entry.sequence: VDGSVYELHPS [GCK_Y413_K414E]
target.system: EPHB1 kinase domain
class: rule met
//
entry.sequence: HLLRIYFDITD [MMP27_Y307_W304L_YF]
target.system: EPHB1 kinase domain
class: rule not met
//
entry.sequence: LLASGYDSPIN [ABLIM1_Y638_R637G]
target.system: EPHB1 kinase domain
class: rule not met
//
entry.sequence: ITNVLYHVVGW [GBA_Y412_L410V]
target.system: EPHB1 kinase domain
class: rule not met
//
entry.sequence: VKMLPYTEVTR [GDI1_Y93_L92P]
target.system: EPHB1 kinase domain
class: rule not met
//
entry.sequence: RDLHTYIMPAH [PNMT_Y256_R254H]
target.system: EPHB1 kinase domain
class: rule not met
//
entry.sequence: RSSGSYGGGGQ [HNRNPA1_Y341_P340S]
target.system: EPHB1 kinase domain
class: rule not met
//
entry.sequence: GTSLIYWILFT [G6PC3_Y214_T216I]
target.system: EPHB1 kinase domain
class: rule not met
//
entry.sequence: NVKGIYAVADV [GSR_Y371_G374A]
target.system: EPHB1 kinase domain
class: rule met
//
entry.sequence: NDFGNYSNQSS [HNRNPA1_Y318_N319S]
target.system: EPHB1 kinase domain
class: rule met
//
entry.sequence: PQAVTYAEVKH [LILRB4_Y360_K362E]
target.system: EPHB1 kinase domain
class: rule met
//
entry.sequence: LQKNIYSEELR [LMNA_Y211_F206L]
target.system: EPHB1 kinase domain
class: rule not met
//
entry.sequence: AVISVYDLVVV [PSEN1_Y256_A260V]
target.system: EPHB1 kinase domain
class: rule not met
//
entry.sequence: HNLDFYKETTN [FGFR3_Y648_K650E_YF]
target.system: EPHB1 kinase domain
class: rule not met
//
entry.sequence: MSRFIYSTDFF [NTRK1_Y676_D674Y_YF]
target.system: EPHB1 kinase domain
class: rule not met
//
entry.sequence: RQQQDYWLKDV [ANPEP_Y600_I603K]
target.system: EPHB1 kinase domain
class: rule not met
//
entry.sequence: VDGSLYETHPQ [HK1_Y417_K418E]
target.system: EPHB1 kinase domain
class: rule met

Source listed as paper PMC10065799.
